Where do these numbers come from? They come from patent US20230337677A1.

System: Aedes aegypti mosquitoes, insecticide-susceptible Orlando strain
Assay type: in vivo
settings: 1 h; (OR)
Classification field: Criterion met = 1 h Repellency EC50, μg/cm^2 at or over 20 μg/cm^2; Criterion not met = 1 h Repellency EC50, μg/cm^2 under 20 μg/cm^2.

Would you please look over these solved cases?
molecule	class.assignment
O=C(Nc1c(Cl)cc(C(F)(F)F)cc1Cl)C(F)(F)C(F)(F)F [GMR138]	Criterion not met
O=C(Nc1cc(C(F)(F)F)cc(C(F)(F)F)c1)C(F)F [MTFI-4-2B]	Criterion not met
CC1(C)[C@H](C=C(Cl)Cl)[C@H]1C(=O)OCc1c(F)c(F)cc(F)c1F [Transfluthrin, transfluthrin, reference compound]	Criterion not met
COC(=O)c1cc(F)c(F)cc1N [MTFI-5-12A]	Criterion met
C=CC(=O)Nc1ccccc1C(F)(F)F [GMR021]	Criterion met
O=C(CC1CC1)Nc1ccccc1C(F)(F)F [MTFI-5-5C]	Criterion met
CC(C(=O)Nc1cc(F)c(F)c(F)c1)(C(F)(F)F)C(F)(F)F [GMR139]	Criterion not met
CCCCC(=O)Nc1ccccc1OC(F)(F)F [MTFI-5-8B]	Criterion not met

[Q] Say whether O=C(Nc1cc(F)c(F)c(F)c1)C(F)(F)C(F)(F)OC(F)(F)F [GMR100] shows 1 h Repellency EC50, μg/cm^2 of 20 μg/cm^2 or more.
[A] Criterion not met

[Q] Can CCCC(=O)Nc1ccccc1OC(F)(F)F [GMR171] be said to have 1 h Repellency EC50, μg/cm^2 at or above 20 μg/cm^2?
[A] Criterion met

====

Tested on: Aedes aegypti strain Puerto Rico (PR, resistant to permethrin)
protocol.details: Topical toxicity (24 hour mortality), Ae. aegypti Puerto Rico
Type: in vivo
settings: topical application, 24 h mortality, female adults, permethrin-resistant Puerto Rico strain
endpoint.name: Ae. aegypti PR LD50 (ng/mg)
Number in ng/mg, nothing else.

compound	tgt	result.unit	numeric.result
O=C(Nc1cc(Cl)nc(C(F)(F)F)c1)C(F)(F)C(F)(F)C(F)(F)C(F)(F)C(F)(F)F [GMR055]	Aedes aegypti strain Puerto Rico (PR, resistant to permethrin)	ng/mg	5.90
O=C(Nc1cc(Cl)nc(Cl)c1)C(F)(F)F [GMR029]	Aedes aegypti strain Puerto Rico (PR, resistant to permethrin)	ng/mg	238
O=C(Nc1c(F)c(F)nc(F)c1F)C(F)(F)C(F)(F)C(F)(F)C(F)(F)C(F)(F)F [GMR057]	Aedes aegypti strain Puerto Rico (PR, resistant to permethrin)	ng/mg	8.90
O=C(Nc1cc(Cl)nc(Cl)c1)C(F)(F)C(F)(F)C(F)(F)F [GMR031]	Aedes aegypti strain Puerto Rico (PR, resistant to permethrin)	ng/mg	31
O=C(Nc1cc(Cl)nc(Cl)c1)C(F)(F)C(F)(F)F [GMR030]	Aedes aegypti strain Puerto Rico (PR, resistant to permethrin)	ng/mg	50

Memo: O=C(Nc1cc(Cl)nc(Cl)c1)C(F)F [GMR028] , reported Ae. aegypti PR LD50: 854

Ae. aegypti PR LD50 reading for O=C(Nc1cc(Br)nc(Br)c1)C(F)(F)C(F)(F)C(F)(F)C(F)(F)C(F)(F)F [GMR056] : 12.10

Measured Ae. aegypti PR LD50 of O=C(Nc1cc(Cl)nc(Cl)c1)C(F)(C(F)(F)F)C(F)(F)F [GMR053] : 7.10

====

System: Aedes aegypti mosquitoes, insecticide-susceptible Orlando strain
Assay type: in vivo
settings: Table 3A
endpoint.name: 1h EC50 (μg/cm^2)
Put down the number, then write its unit next to it.

O=C(Nc1c(Cl)cc(C(F)(F)F)cc1Cl)C(F)(F)C(F)(F)F 5.30 μg/cm^2

// field: 1h EC50 (μg/cm^2); key: "O=C(Nc1c(Cl)cccc1Cl)C(F)(F)C(F)(F)F" ; value = 8.90 μg/cm^2

Entry "O=C(Nc1cc(F)c(F)c(F)c1)C(F)(F)C(F)(F)C(F)(F)F" — recorded 1h EC50 (μg/cm^2) = 2.92 μg/cm^2

1h EC50 (μg/cm^2) recorded for this compound, "O=C(Nc1cc(F)c(F)c(F)c1)C(F)(F)C(F)(F)OC(F)(F)F" , is 3.09 μg/cm^2

====

System: Aedes aegypti mosquitoes, insecticide-susceptible Orlando strain
settings: screened at 100 μg/cm^2; 24 h; strain not given
Answer Not fulfilled if 24 h % Mortality, 100 μg/cm^2 is under 7%, and Fulfilled if it is 7% or more.

The following compounds have reported results that may help.
O=C(Nc1cc(F)c(F)c(F)c1)C(F)(F)C(F)(F)F Fulfilled
O=C(CCC1CCCCC1)Nc1ccccc1C(F)(F)F Fulfilled
C=CCCCC(=O)Nc1cc(C(F)(F)F)cc(C(F)(F)F)c1 Not fulfilled
CC(C)CC(=O)Nc1cc(F)c(F)c(F)c1 Fulfilled
CCOC(=O)Nc1ccccc1C(F)(F)F Fulfilled

[Q] Say whether "CC(C)(C)c1cccc(NC(=O)CCl)c1" shows 24 h % Mortality, 100 μg/cm^2 of 7% or more.
[A] Not fulfilled

[Q] Does 24 h % Mortality, 100 μg/cm^2 meet or surpass 7% for "CC(C)(F)C(=O)Nc1ccccc1C(F)(F)F" ?
[A] Not fulfilled

====

Tested on: Aedes aegypti mosquitoes, insecticide-susceptible Orlando strain
Format: in vivo
settings: structure-activity analysis of Table 2
endpoint.name: vapor repellency / mortality, statement in words (Example 8)

Recorded results for 4 compounds are shown here.
compound	result
O=C(Nc1ccc(C(F)(F)F)cc1)c1cc(Cl)cc(Cl)c1 [MTFI-4-NA-1C]	poor results
CC(C(=O)Nc1cc(F)c(F)c(F)c1)(C(F)(F)F)C(F)(F)F [GMR139]	reduced repellency
O=C(Nc1cccc(C(F)(F)F)c1)c1c(F)c(F)c(F)c(F)c1F [MT2018-0316-01]	poor results
Cc1ccccc1C(=O)Nc1cc(C(F)(F)F)cc(C(F)(F)F)c1 [MTFI-3-1E]	poor results

Simply: O=C(NCC(F)(F)F)Nc1c(Cl)cc(C(F)(F)F)cc1Cl [MTFI-4-FPL-A] , Aedes aegypti mosquitoes, insecticide-susceptible Orlando strain, vapor repellency / mortality, statement in words (Example 8) = reduced repellency

====

Tested on: Aedes aegypti mosquitoes, insecticide-susceptible Orlando strain
settings: in vivo
endpoint.name: 24 h % Mortality, 100 μg/cm^2 (%)
Report only the number, with the unit % understood.

Answered cases to consult:
compound	endpoint.name	result.unit	numeric.result
COCc1c(F)c(F)c(COC(=O)[C@@H]2[C@@H](C=C(Cl)Cl)C2(C)C)c(F)c1F [GMR146]	24 h % Mortality, 100 μg/cm^2	%	100
CN(C(=O)C(F)(F)C(F)(F)OC(F)(F)F)c1cc(Cl)nc(Cl)c1 [GMR106]	24 h % Mortality, 100 μg/cm^2	%	100
C/C=C\C[C@H]1C(=O)CC[C@@H]1CC(=O)Nc1cc(F)c(F)c(F)c1 [GMR098]	24 h % Mortality, 100 μg/cm^2	%	0

Assay Aedes aegypti mosquitoes, insecticide-susceptible Orlando strain, sample O=C(Nc1cc(C(F)(F)F)cc(C(F)(F)F)c1)C(F)(F)F [MTFI-3-1G] , 24 h % Mortality, 100 μg/cm^2 read: 100

====

System: Aedes aegypti strain Orlando (sensitive)
protocol.details: Topical toxicity (24 hour mortality), Ae. aegypti Orlando
Assay type: in vivo
settings: Table 5; topical, 24 h
Procedure: The Aedes aegypti strains Orlando (sensitive) as well as the Puerto Rico (PR, resistant to permethrin) were used. […] Female adults from 3 to 6 days were used for the experiments. […] Mortality, i.e. no visible movement, was assessed 24 hours after treatment. Every compound was assessed on at least 3 different cohorts of mosquitoes, and the LD50 values and slopes were determined with Probit analysis, corrected with Abbott's formula.
endpoint.name: Ae. aegypti OR LD50 (ng/mg)
Form entry: value (ng/mg) — number only.

O=C(Nc1cc(Cl)nc(Cl)c1)C(F)(F)C(F)(F)OC(F)(F)F 17.80
O=C(Nc1cc(Cl)nc(Cl)c1)C(F)(C(F)(F)F)C(F)(F)F 17.20
O=C(Nc1cc(Cl)nc(C(F)(F)F)c1)C(F)(F)C(F)(F)C(F)(F)F 17.30

"O=C(Nc1cc(Cl)nc(C(F)(F)F)c1)C(F)(F)C(F)(F)OC(F)(F)F" has a reported Ae. aegypti OR LD50 of 14.90

====

System: Anopheles gambiae Akron kdr (Akdr) strain, resistant to pyrethroids
protocol.details: Topical toxicity (24 hour mortality), An. gambiae Akdr
Assay type: in vivo
settings: Table 5; topical, 24 h
Listed here are molecules together with their documented An. gambiae AKDR LD50.
Answer format: numeric, ng/mg implied, no suffix.

Check out these entries, answers already filled in.
molecule	An. gambiae AKDR LD50 [ng/mg]
O=C(Nc1cc(Cl)nc(Cl)c1)C(F)(F)C(F)(F)OC(F)(F)F [compound 54]	11.00
O=C(Nc1cc(Cl)nc(C(F)(F)F)c1)C(F)(F)C(F)(F)C(F)(F)F [compound 56]	5.30
O=C(Nc1cc(Cl)nc(C(F)(F)F)c1)C(F)(F)C(F)(F)OC(F)(F)F [compound 57]	3.60

Please examine the following record next.
Briefly, An. gambiae AKDR LD50 measured for O=C(Nc1cc(Cl)nc(Cl)c1)C(F)(C(F)(F)F)C(F)(F)F [compound 55] : 2.70
